- procedure summary: in vitro
- assay conditions: human, WI38 normal lung fibroblast cells, LD50 WI38, WI38 normal lung fibroblast line, MTT, 24 hours with peptide
No end group written: not given here.
Rule: CC50 at 24 h below 100 µg/mL gives Condition met, anything at or above gives Condition not met.

substance | discrete label
VAKKLAKLAKKLLAL-NH2 [FLAK43 AM V] | Condition met
FAKLLAKLAKKVL-NH2 [P124] | Condition met
KLAKKLAKLAKLAKAL-OH [P160, reference compound] | Condition not met
FAKLLKLAAKKLL-NH2 [P56] | Condition not met
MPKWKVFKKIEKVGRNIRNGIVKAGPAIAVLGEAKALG-OH [SB37COOH] | Condition not met
FALALKALKKLAKKLKKLAKKAL-NH2 [P25] | Condition met
FALAKLAKKAKAKLKKALKAL-NH2 [P26] | Condition met
FAKLLAKALKKLL-NH2 [P55] | Condition met
VALALKALKKL-NH2 [P180] | Condition not met
FAKLLAKLAKAKA-NH2 [P95] | Condition not met
FALKALKKLKKALKKAL-NH2 [P153] | Condition not met
LPKWKVFKKIEKVGRNIRNGIVKAGPAIAVLGEAKALG-NH2 [P306, reference compound] | Condition not met
FAKLLAKALKKFL-NH2 [P118] | Condition not met
FALALKLAKKAL-NH2 [P167, FALALKLAKKAL-NH2] | Condition not met
KWKLFKKALKKLKKALKKAL-NH2 [P104] | Condition met
FAKLLAKLAKKGL-NH2 [P152] | Condition not met
KWKLFKKKTKLFKKFAKKLAKKL-OH [P81] | Condition met
VAKKFAKKFKKFAKKFAKFAFAF-NH2 [P503] | Condition not met
VAKALKALLKALKAL-NH2 [FLAK 17 CV] | Condition met
LKKLAKLALAF-NH2 [P179] | Condition not met
FAKLLAKLAKKIL-NH2 [P125] | Condition met
FAKKLLAKALKL-NH2 [P110] | Condition met
FAKLLAKKLL-NH2 [P57] | Condition not met
FAKLLAKALKKFAL-NH2 [P119, FAKLLAKALKKFAL-NH2] | Condition met
FAKKLAKLAKKLLAL-NH2 [P38, FAKKLAKLAKKLLAL-NH2] | Condition met
FKRLAKIKVLRLAKIKR-NH2 [P147] | Condition met
FALALKALKKALKKLKKALKKAL-NH2 [P2, reference compound] | Condition met
FAKKLAKLAKKALAL-NH2 [P39, FAKKLAKLAKKALAL-NH2] | Condition not met
VAKFLAKFLKKAL-NH2 [FLAK50 Q1V] | Condition met
FKLAFKLAKKAFL-NH2 [P122] | Condition not met
FAKLLAKALKLKL-NH2 [P101] | Condition not met
VAKLLAKALKKLL-NH2 [FLAK50D V] | Condition met
FAKLLALALKLKL-NH2 [P94] | Condition met
FALALKA-NH2 [P141, FALALKA-NH2] | Condition not met
FAKLLAKLAKKFAL-NH2 [P120, FAKLLAKLAKKFAL-NH2] | Condition not met
KLALKLALKALKAAKLA-NH2 [P150] | Condition not met
KTKLFKKFAKKLAKKLKKLAKKL-OH [P80] | Condition met
FAKLLAKLAKKL-NH2 [P49] | Condition not met
FAKKLAKKLKKLAKKLAKKWKL-NH2 [P70] | Condition met
FAKKLAKKLAKAL-NH2 [P74, FAKKLAKKLAKAL-NH2] | Condition not met
FAKIIAKIAKIAKKIL-NH2 [P139] | Condition not met
FAKKLAKKLKKLAKKLAK-OH [P71] | Condition not met
KLAKKLAKLAKLAKAL-NH2 [P159, reference compound] | Condition met
FALALKLAKKL-NH2 [P178] | Condition not met
FALALKALKKLKKALKKAL-NH2 [P27] | Condition met
KLLKLLLKLYKKLLKLL-OH [P156] | Condition not met
FAKLLAKFLKKAL-NH2 [P113] | Condition not met
FAKLLFKALKKAL-NH2 [P112, FAKLLFKALKKAL-NH2] | Condition not met
FAKKLAKKLL-NH2 [P59] | Condition met

====

- Tested on: P. aeruginosa H374
- Type: cell-based, Pseudomonas aeruginosa
- assay conditions: MIC of nalidixic acid with peptide at ¼ MIC
No end group written: not given here.
Recorded MIC Nal-comb. for the following substances

substance | assayed system | MIC Nal-comb. (µg/mL)
FAKKLAKKLAKLL-NH2 [P75] | P. aeruginosa H374 | 2500
FAKKLAKKLKKLAKLALAK-NH2 [P41] | P. aeruginosa H374 | 5000
FAKKLAKLAKKALAL-NH2 [P39, FAKKLAKLAKKALAL-NH2] | P. aeruginosa H374 | 1250
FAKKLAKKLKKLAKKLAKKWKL-OH [P72] | P. aeruginosa H374 | 2500
FAKLLAKALKKFL-NH2 [P118] | P. aeruginosa H374 | 2500
FAKKLAKKLAKLAL-NH2 [P45, FAKKLAKKLAKLAL-NH2] | P. aeruginosa H374 | 2500
FALKALKKLKKALKKAL-NH2 [P153] | P. aeruginosa H374 | 5000
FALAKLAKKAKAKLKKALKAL-NH2 [P26] | P. aeruginosa H374 | 2500
FAKKLAKLALKLAKL-NH2 [P44] | P. aeruginosa H374 | 5000
FAKLLAKLAKKL-NH2 [P49] | P. aeruginosa H374 | 2500
FAKKLAKKLKKLAKKLAKLAKKL-NH2 [P307, reference compound] | P. aeruginosa H374 | 625
FAKLLAKLAKKLL-NH2 [P43] | P. aeruginosa H374 | 5000
FAKKLAKKLKKLAKKLAK-NH2 [P69] | P. aeruginosa H374 | 2500
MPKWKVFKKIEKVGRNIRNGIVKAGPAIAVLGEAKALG-NH2 [P12, reference compound] | P. aeruginosa H374 | 2500
VAKKLAKLAKKLAKLAL-NH2 [P50] | P. aeruginosa H374 | 5000
VALALKALKKALKKLKKALKKAL-OH [P508] | P. aeruginosa H374 | 5000
FALALKALKKLLKKLKKLAKKAL-NH2 [P24] | P. aeruginosa H374 | 5000
VALALKALKKLLKKLKKLAKKAL-NH2 [P510] | P. aeruginosa H374 | 625
FAKKLAKLAKKLAKAL-NH2 [P109] | P. aeruginosa H374 | 2500
KTKLFKKFAKKLAKKLKKLAKKL-OH [P80] | P. aeruginosa H374 | 2500
FAKLLAKALKKFAL-NH2 [P119, FAKLLAKALKKFAL-NH2] | P. aeruginosa H374 | 2500
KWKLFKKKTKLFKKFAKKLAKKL-NH2 [P73] | P. aeruginosa H374 | 2500
FAKLLAKALKKAL-NH2 [P102, FAKLLAKALKKAL-NH2] | P. aeruginosa H374 | 5000
KLALKLALKALKAAKLA-NH2 [P150] | P. aeruginosa H374 | 1250
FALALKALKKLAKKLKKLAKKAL-NH2 [P25] | P. aeruginosa H374 | 2500
KYKKALKKLAKLL-NH2 [P146] | P. aeruginosa H374 | 625
FAKKLLAKALKL-NH2 [P110] | P. aeruginosa H374 | 2500
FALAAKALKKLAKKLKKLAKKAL-NH2 [P23] | P. aeruginosa H374 | 2500
FAKLLAKALKLKL-NH2 [P101] | P. aeruginosa H374 | 5000

Attribution: patent US20050209157A1
